Test system: HCT-15
Experiment: Sphere-forming ability of cultured cancer cell lines (Test Example 10)
Format: cell-based
Settings: Homo sapiens, 96 h; HCT-15 colon cancer cell line, 4 days
Readout Type: pIC50
By convention, pIC50 is the negative base-10 log of a molar concentration.

Query :: State, in one line, measured pIC50 of O=C(Nc1cn(Cc2cc(F)c(F)c(F)c2)cn1)c1cnc(CO)c(C(F)F)c1 [Example 24]
Result :: 8.10

* * *

System: MIA PaCa-2
Assay: Sphere-forming ability of cultured cancer cell lines (Test Example 10)
Assay type: cell-based
Conditions: Homo sapiens, 96 h; MIA PaCa-2 pancreatic cancer cell line, 4 days
Readout Type: IC50 (nM)
Reply with just the number (in nM).

Query :: State, in one line, measured IC50 of O=C(Nc1cn(Cc2cc(F)c(F)c(F)c2)cn1)c1cnc(CO)c(C(F)F)c1
Result :: 8
